- TGT: T1, M5-1
- T1 construct: also called PD1 mutant M5-1
- MEASUREMENT PROTOCOL: scFv-phage ELISA
Parameter OD490: see the listing below.
OBSERVATION TYPE: OD490

{"BINDER": "PD1-51D9 (antibody, V domains shown, scFv-phage in the screening ELISA; whole IgG in the other assays) VH: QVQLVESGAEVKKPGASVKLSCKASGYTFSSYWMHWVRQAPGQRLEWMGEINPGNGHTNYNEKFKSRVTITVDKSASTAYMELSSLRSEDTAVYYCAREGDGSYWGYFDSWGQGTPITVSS VL: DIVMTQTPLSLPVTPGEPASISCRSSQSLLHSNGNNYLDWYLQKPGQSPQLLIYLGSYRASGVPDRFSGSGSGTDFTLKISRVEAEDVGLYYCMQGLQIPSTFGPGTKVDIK", "OBSERVATION TYPE": "OD490", "REPORTED RESULT": 0.1}
{"BINDER": "PD1-45D6 (antibody, V domains shown, scFv-phage in the screening ELISA; whole IgG in the other assays) VH: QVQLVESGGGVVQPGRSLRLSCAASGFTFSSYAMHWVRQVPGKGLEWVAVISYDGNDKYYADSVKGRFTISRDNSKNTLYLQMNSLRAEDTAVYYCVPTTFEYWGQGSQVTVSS VL: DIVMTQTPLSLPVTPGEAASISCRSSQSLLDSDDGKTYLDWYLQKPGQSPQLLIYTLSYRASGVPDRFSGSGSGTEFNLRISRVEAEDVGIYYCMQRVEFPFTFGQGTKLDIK", "OBSERVATION TYPE": "OD490", "REPORTED RESULT": 3.8}
{"BINDER": "PD1-41C9 (antibody, V domains shown, scFv-phage in the screening ELISA; whole IgG in the other assays) VH: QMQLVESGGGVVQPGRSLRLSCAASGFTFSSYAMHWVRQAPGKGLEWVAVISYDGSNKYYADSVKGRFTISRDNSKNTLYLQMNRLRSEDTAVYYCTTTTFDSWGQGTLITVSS VL: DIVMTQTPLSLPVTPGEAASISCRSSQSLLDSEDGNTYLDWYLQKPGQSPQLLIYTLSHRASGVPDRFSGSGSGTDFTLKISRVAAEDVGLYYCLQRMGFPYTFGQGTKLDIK", "OBSERVATION TYPE": "OD490", "REPORTED RESULT": 2.8}
{"BINDER": "PD1-29H3 (antibody, V domains shown, scFv-phage in the screening ELISA; later whole IgG) VH: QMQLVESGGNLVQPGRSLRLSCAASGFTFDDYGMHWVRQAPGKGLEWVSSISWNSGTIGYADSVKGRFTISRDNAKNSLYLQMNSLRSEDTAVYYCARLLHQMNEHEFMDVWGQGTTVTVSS VL: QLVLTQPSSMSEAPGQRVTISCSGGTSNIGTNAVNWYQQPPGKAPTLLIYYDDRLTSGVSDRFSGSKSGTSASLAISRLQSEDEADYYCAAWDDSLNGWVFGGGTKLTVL", "OBSERVATION TYPE": "OD490", "REPORTED RESULT": 2}
